Entries and their measured OD450 follow.
Study system: Peptide 1: Biotin-…-[Tyr(PC)]-acid
Sequence (peptide, as listed by the source): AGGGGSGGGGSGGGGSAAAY
Measurement notes: scFv ELISA
Hi! Could you send only the number? It should be in OD450, unit omitted.

# annotated cases, reported OD450 shown
Q) Requested read-out: OD450. Entry: PcOxP_DB04_E08 (scFv, V domains shown, scFv in periplasmic extract) VH: EVQLLESGGGLVQPGGSLRLSCAASGFTSSDFYLEWVRQAPGKGLEWVAASRNKWNDYTTEYADSVKGRFTISRDNSKNTLYLQMNSLRAEDTAVYYCARDYYGSSYWYFDVWGQGTLVTVSS VL: DIVMTQSPDSLAVSLGERATINCTASESLYSSKHKVHYLAWYQQKPGQPPKLLIYGVSNRYIGVPDRFSGSGSGTDFTLTISSLQAEDVAVYYCAQFYSYPLTFGGGTKVEIK
A) 1.39

Q) Requested read-out: OD450. Entry: PcOxP_DB02_F11 (scFv, V domains shown, scFv in periplasmic extract) VH: EVQLLESGGGLVQPGGSLRLSCAASGTTFSDFYMEWVRQAPGKGLEWVAASRNKYNDYTTEYADSVKGRFTISRDNSKNTLYLQMNSLRAEDTAVYYCARDYYGSSYWYFDVWGQGTLVTVSS VL: DIVMTQSPDSLAVSLGERATINCTASESLYSSKHKVHYLAWYQQKPGQPPKLLIYGASNRYPGVPDRFSGSGSGTDFTLTISSLQAEDVAVYYCAQFYSYPLTFGGGTKVEIK
A) 0.23

Proceeding to the next binder to report its OD450.
Q) Requested read-out: OD450. Entry: PcOxP_DB01_A08 (scFv, V domains shown, scFv in periplasmic extract) VH: EVQLLESGGGLVQPGGSLRLSCAASGFTQSDFYMEWVRQAPGKGLEWVAAIRNKANSYTTEYADSVKGRFTISRDNSKNTLYLQMNSLRAEDTAVYYCARDYYGSSYWYFDVWGQGTLVTVSS VL: DIVMTQSPDSLAVSLGERATINCTASESVYSSKNKKHYLAWYQQKPGQPPKLLIYGASNRYIGVPDRFSGSGSGTDFTLTISSLQAEDVAVYYCAQFYSYPLTFGGGTKVEIK
A) 0.16
